target: Env of HIV-1 strain PVO.4 (HIV-1)
experiment: cell-based or functional assay
The entries below are paired with their reported neutralization IC50.
readout_kind: neutralization IC50

>  <binder>
γ46κ18 (antibody, V domains shown) VH: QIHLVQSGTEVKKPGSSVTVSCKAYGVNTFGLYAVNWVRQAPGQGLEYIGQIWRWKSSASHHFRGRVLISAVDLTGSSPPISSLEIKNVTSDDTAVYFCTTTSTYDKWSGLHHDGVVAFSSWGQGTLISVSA VL: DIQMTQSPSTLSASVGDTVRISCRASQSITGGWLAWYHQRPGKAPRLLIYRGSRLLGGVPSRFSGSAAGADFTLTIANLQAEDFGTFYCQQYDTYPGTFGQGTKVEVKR

>  <readout_kind>
neutralization IC50

>  <val>
2.1 µg/mL

$$$$
>  <binder>
γ22κ18 (antibody, V domains shown) VH: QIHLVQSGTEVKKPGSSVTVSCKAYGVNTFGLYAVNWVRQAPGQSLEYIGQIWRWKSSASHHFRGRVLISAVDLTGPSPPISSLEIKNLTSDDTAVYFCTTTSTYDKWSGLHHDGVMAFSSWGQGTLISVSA VL: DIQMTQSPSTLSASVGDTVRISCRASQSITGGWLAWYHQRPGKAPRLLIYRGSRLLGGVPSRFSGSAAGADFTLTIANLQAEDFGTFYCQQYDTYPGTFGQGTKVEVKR

>  <readout_kind>
neutralization IC50

>  <val>
> 15 µg/mL

$$$$
>  <binder>
γ4κ3 (antibody, V domains shown) VH: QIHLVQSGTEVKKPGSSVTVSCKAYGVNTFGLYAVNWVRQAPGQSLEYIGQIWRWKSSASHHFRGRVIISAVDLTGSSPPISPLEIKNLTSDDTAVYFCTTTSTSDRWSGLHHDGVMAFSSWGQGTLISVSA VL: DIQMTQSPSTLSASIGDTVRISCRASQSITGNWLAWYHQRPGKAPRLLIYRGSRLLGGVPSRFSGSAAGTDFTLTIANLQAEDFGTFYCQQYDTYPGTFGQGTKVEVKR

>  <readout_kind>
neutralization IC50

>  <val>
> 15 µg/mL

$$$$

Sourced from patent US20180171001A1
